So I've got a bunch of compounds here, and I need their residual activity values.
Target: BDNF/NT-3 growth factors receptor (Homo sapiens) (UniProt Q16620)
Sequence (Q16620 32-822 limits assumed): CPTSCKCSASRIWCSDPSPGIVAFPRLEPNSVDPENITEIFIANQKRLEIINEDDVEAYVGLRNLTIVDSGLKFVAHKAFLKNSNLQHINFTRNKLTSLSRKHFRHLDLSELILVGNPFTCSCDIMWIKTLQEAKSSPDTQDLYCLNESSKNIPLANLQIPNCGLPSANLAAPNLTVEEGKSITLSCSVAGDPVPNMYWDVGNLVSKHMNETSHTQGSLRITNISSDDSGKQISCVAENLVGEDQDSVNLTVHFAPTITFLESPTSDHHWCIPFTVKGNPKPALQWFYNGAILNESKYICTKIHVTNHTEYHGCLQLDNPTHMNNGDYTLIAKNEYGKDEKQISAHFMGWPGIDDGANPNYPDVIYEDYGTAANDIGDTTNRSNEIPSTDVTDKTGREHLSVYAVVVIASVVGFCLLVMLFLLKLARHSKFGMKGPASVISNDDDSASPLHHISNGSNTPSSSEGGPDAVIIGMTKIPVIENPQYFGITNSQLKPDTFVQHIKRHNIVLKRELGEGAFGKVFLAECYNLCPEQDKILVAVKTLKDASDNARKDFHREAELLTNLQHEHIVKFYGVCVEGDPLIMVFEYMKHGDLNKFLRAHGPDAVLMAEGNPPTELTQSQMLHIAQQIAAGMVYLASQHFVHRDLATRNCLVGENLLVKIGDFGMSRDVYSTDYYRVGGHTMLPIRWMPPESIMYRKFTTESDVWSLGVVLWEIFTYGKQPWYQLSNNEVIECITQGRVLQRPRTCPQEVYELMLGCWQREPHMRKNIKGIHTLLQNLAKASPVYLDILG
Settings: at 10 µM
Give bare numbers, in %.

Would you please look over these solved cases?
>>> endpoint_value("O=C1c2ccccc2-[n+]2ccc3c([nH]c4ccccc43)c21")
89
>>> endpoint_value("COc1cccc(-c2cc(=O)c3ccccc3o2)c1N")
87
>>> endpoint_value("Nc1ccc2ncnc(NCCc3ccc(Oc4ccccc4)cc3)c2c1")
58
>>> endpoint_value("CO[C@@H]1[C@H](N(C)C(=O)c2ccccc2)C[C@H]2O[C@]1(C)n1c3ccccc3c3c4c(c5c6ccccc6n2c5c31)C(=O)NC4")
-12
>>> endpoint_value("O=C1Nc2ccccc2/C1=C1/Nc2ccccc2/C1=N\\OCCC(O)CO (configuration not stated)")
0
>>> endpoint_value("Cc1ccc(S(=O)(=O)/C=C/C#N)cc1")
105
>>> endpoint_value("O=C1Nc2cc(Br)ccc2/C1=C1/Nc2ccccc2/C1=N\\O")
-1
>>> endpoint_value("COc1ccc(C(=O)Nc2sc3c(c2C(N)=O)CCCC3)cc1OC")
71
>>> endpoint_value("Cn1cnc2cc3c(Nc4cccc(Br)c4)ncnc3cc21")
68
>>> endpoint_value("C[C@@H](N)[C@H]1CC[C@H](C(=O)Nc2ccncc2)CC1")
99

State recorded residual activity for all listed compounds.
1. Nc1nc(Nc2ccc(S(N)(=O)=O)cc2)nn1C(=S)Nc1c(F)cccc1F
2. N#CCCc1ccc2c(c1)-c1[nH]c3ccc([N+](=O)[O-])cc3c1CC(=O)N2
3. O=C1NC(=O)c2cc(Nc3ccc(F)cc3)c(Nc3ccc(F)cc3)cc21
4. O=c1c2ccccc2[nH]c(=S)n1CCN1CCC(=C(c2ccc(F)cc2)c2ccc(F)cc2)CC1
5. CC(=O)c1ccc(N2CCOCC2)cc1O
6. N#Cc1cnc2cnc(NCc3cccnc3)cc2c1Nc1ccc(F)c(Cl)c1

[0, 65, 88, 59, 108, 1]

State recorded residual activity for all listed compounds.
1. O=C(O)c1ccc2c3c1cccc3c(=O)n1c3ccccc3nc21
2. NC(=O)c1ccc2[nH]c(-c3ccc(Oc4ccc(Cl)cc4)cc3)nc2c1

1: 59; 2: 101

State recorded residual activity for all listed compounds.
1. CCOc1cc2ncnc(Nc3cccc(Br)c3)c2cc1OCC
2. CN(C)c1ccc(/C=C2\C(=O)Nc3ccccc32)cc1
3. CC(=O)O/N=C1\C(=C2\C(=O)Nc3cc(Br)ccc32)Nc2ccccc21
4. Oc1ccc(-c2nc(-c3ccc(F)cc3)c(-c3ccncc3)[nH]2)cc1

[88, 5, 1, 61]
